Origin of measurements: the NIST ThermoML archive (doi:10.1016/j.jct.2009.11.014)

conditions: 303.15 K; 60000 kPa; Liquid; vibrating tube
Assay Readout: mass density (kg/m3)
Report as a plain number; the unit kg/m3 is understood.

Past entries and their recorded results:
>  <Compound>
CCCCCCCC[n+]1ccn(C)c1.F[B-](F)(F)F [1-methyl-3-octylimidazolium tetrafluoroborate]

>  <mass density / kg/m3>
1128.52

$$$$
>  <Compound>
CCn1cc[n+](C)c1.F[B-](F)(F)F [1-ethyl-3-methylimidazolium tetrafluoroborate]

>  <mass density / kg/m3>
1306.43

$$$$
>  <Compound>
CCCCn1cc[n+](C)c1.F[B-](F)(F)F [1-butyl-3-methylimidazolium tetrafluoroborate]

>  <mass density / kg/m3>
1223.89

$$$$

Turning to the following compound.
Using the record for CCCCCCn1cc[n+](C)c1.F[B-](F)(F)F [1-hexyl-3-methylimidazolium tetrafluoroborate] , report its mass density.
1168.87

====

details: 293.15 K; 6000 kPa; Liquid; vibrating tube
Assay Readout: mass density (kg/m3)
Respond numerically; units are kg/m3 and should not be typed.

Quick check: mass density of CCn1cc[n+](C)c1.F[B-](F)(F)F [1-ethyl-3-methylimidazolium tetrafluoroborate] ?
1291.91

====

details: 288.15 K; 12000 kPa; Liquid; vibrating tube
Numbers after ± are expanded uncertainties.
Examples of compounds with documented mass density follow.

Solved entries (count: 3):
>  <Compound>
CCCCCCCC[n+]1ccn(C)c1.F[B-](F)(F)F [1-methyl-3-octylimidazolium tetrafluoroborate]

>  <mass density>
1116.94 ± 0.94 kg/m3

$$$$
>  <Compound>
CCCCCCn1cc[n+](C)c1.F[B-](F)(F)F [1-hexyl-3-methylimidazolium tetrafluoroborate]

>  <mass density>
1158.05 ± 0.96 kg/m3

$$$$
>  <Compound>
CCCCn1cc[n+](C)c1.F[B-](F)(F)F [1-butyl-3-methylimidazolium tetrafluoroborate]

>  <mass density>
1214.22 ± 0.99 kg/m3

$$$$

Record request: mass density value, item CCn1cc[n+](C)c1.F[B-](F)(F)F [1-ethyl-3-methylimidazolium tetrafluoroborate]
1298.29 ± 1.6 kg/m3

====

details: 303.15 K; 12000 kPa; Liquid; vibrating tube
# maps each entry to its mass density
Give just the numeric value; kg/m3 need not be written.

Which value of mass density has been reported for CCn1cc[n+](C)c1.F[B-](F)(F)F [1-ethyl-3-methylimidazolium tetrafluoroborate] in the records?
1287

For CCCCn1cc[n+](C)c1.F[B-](F)(F)F [1-butyl-3-methylimidazolium tetrafluoroborate] , what is its reported mass density?
1203.62

GET /values?readout=mass density&item= CCCCCCCC[n+]1ccn(C)c1.F[B-](F)(F)F [1-methyl-3-octylimidazolium tetrafluoroborate]
1107.03

Request the reported mass density associated with CCCCCCn1cc[n+](C)c1.F[B-](F)(F)F [1-hexyl-3-methylimidazolium tetrafluoroborate]
1147.82

====

details: 308.15 K; 30000 kPa; Liquid; vibrating tube
Assay Readout: mass density (kg/m3)
Number only, in kg/m3; omit the unit.

Examples with answers:
>  <Molecule>
CCCCCCCC[n+]1ccn(C)c1.F[B-](F)(F)F [1-methyl-3-octylimidazolium tetrafluoroborate]

>  <mass density, kg/m3>
1112.34

$$$$
>  <Molecule>
CCCCn1cc[n+](C)c1.F[B-](F)(F)F [1-butyl-3-methylimidazolium tetrafluoroborate]

>  <mass density, kg/m3>
1208.15

$$$$
>  <Molecule>
CCn1cc[n+](C)c1.F[B-](F)(F)F [1-ethyl-3-methylimidazolium tetrafluoroborate]

>  <mass density, kg/m3>
1290.85

$$$$

Kindly consider the entry below.
# mass density lookup, item CCCCCCn1cc[n+](C)c1.F[B-](F)(F)F [1-hexyl-3-methylimidazolium tetrafluoroborate]
1152.83
